# pKa per entry
conditionsUsed: acidic group
Please state the value as a number alone, without comment.

Please review the following examples before continuing.
{"smi": "OB(O)c1cccc(O)c1", "resultValue": 8.55}
{"smi": "O=c1c(O)c1-c1ccc(F)cc1", "resultValue": 2.07}
{"smi": "OCc1ccccc1O", "resultValue": 9.92}

// pKa lookup, molecule = O=[N+]([O-])c1ccc(O)c(O)c1 , result: 6.74

Entry CC1(C)NC(=S)NC1=O ; pKa = 8.71

====

conditionsUsed: basic group
Label label 1 when pKa >= 5; otherwise label 0.

These solved cases illustrate the format of a correct answer.
{"compound": "COc1ccc(NCCS)cc1", "assignedClass": "label 1"}
{"compound": "CN(C(=O)c1ccccc1)c1ccncc1", "assignedClass": "label 0"}
{"compound": "Cc1cc(O)cc(O)c1C(=N)c1ccccc1", "assignedClass": "label 1"}

**Q:** Form field: pKa at least 5? Entry: Nn1nnnc1-c1ccccc1
**A:** label 0
